# Test system: PC-3 prostate
# Assay name: NCI-60 one-dose screen, 48 h
# Condition context: 10 µM unless noted
# Protocol: Growth inhibition of the PC-3 human tumor cell line is measured as a screen for anti-cancer activity. Cells are grown in 96 well plates and exposed to the test compound for 48 hours. Compounds are tested at a single concentration, which is 10^-5 M for most compounds. The reported endpoint is percent growth (GI% or GIPRCNT), where numbers from 0 - 100% represent growth inhibition, and numbers from -100% - 0 represent cell death. For example, a value of 40 represents 60% growth inhibition. […]
About 83,000 compounds went through this panel and 20% of them were active in at least one assay; those are over-represented in the sample as a whole. Activity calls are given as the source filed them. How the source made its calls: active means growth percent below 10; inactive means the rest.
Permitted responses: active, inactive

{"columns": ["Compound", "Discrete label"],
 "data": [
  ["CCCC(=O)NC(c1cccnc1)c1ccc2c(C)ccnc2c1O (stereo not given)", "inactive"],
  ["Cc1cc(NS(=O)(=O)c2ccc(-c3cnc(C4CC4)o3)cc2)ccc1I", "inactive"],
  ["COc1ccc(C(=O)c2c(N)c(C#N)cn2-c2cccc(OC)c2)cc1", "inactive"],
  ["COc1ccc([C@H]2[C@H](O)C(=O)N2c2cc(OC)c(OC)c(OC)c2)cc1Cl", "inactive"],
  ["CSc1ccc(/C(=N/N=C(N)N)c2ccccc2)cc1", "inactive"],
  ["CS(=O)(=O)c1ccc(-c2nn(-c3ccccc3)cc2/C=C/C(=O)c2ccc(Br)cc2)cc1", "inactive"]
]}

Prompt: Assay result, entry C=CCn1c(SCC(=O)Nc2cccc(C(=O)/C=C/c3ccc(Cl)cc3)c2)nc2ccccc2c1=O — outcome?
Response: inactive

Prompt: Assay result, entry C=CCn1c(SCC(=O)Nc2cccc(C(=O)/C=C/c3ccc(Br)cc3)c2)nc2ccccc2c1=O — outcome?
Response: inactive

Prompt: Assay result, entry c1ccc(-c2n(Cc3ccc4ccccc4c3)c3c4ccccc4c4ccccc4c3[n+]2Cc2ccc3ccccc3c2)cc1 — outcome?
Response: active

Prompt: Assay result, entry CCN(CC)Cc1c(-c2cccc(OC(F)(F)F)c2)[nH]c2ccc(N3CCCC3)cc2c1=O — outcome?
Response: inactive

Prompt: Assay result, entry CCNC(=O)Oc1ccc(/C(=C(/C)c2ccccc2)c2ccc(OCCN3CCCC3)cc2)cc1 — outcome?
Response: inactive

Prompt: Assay result, entry Cn1cc(-c2nn3cc(-c4cccnc4)nc3s2)c2cc(F)ccc21 — outcome?
Response: inactive

Prompt: Assay result, entry CCN1CCN(Cc2ccc(C(=O)Nc3nc4ccc(Oc5ccnc(C(=O)NC)c5)cc4s3)cc2C(F)(F)F)CC1 — outcome?
Response: inactive

Prompt: Assay result, entry COc1cc2cc(Oc3ccc(NC(=O)c4cccc(C(F)(F)F)c4)cc3)c(C)nc2cc1OCCN(C)C — outcome?
Response: inactive

Prompt: Assay result, entry Cc1ccc(Nc2ncnc3c2c(C)nn3-c2ccc([N+](=O)[O-])cc2)cc1 — outcome?
Response: inactive

Prompt: Assay result, entry CN1CCN(c2ccc(NC(=O)Nc3ccc4c(ccn4-c4cccc(C(N)=O)n4)c3)cc2C(F)(F)F)CC1 — outcome?
Response: inactive

###

# Test system: K-562 leukemia
# Assay name: NCI-60 one-dose screen, 48 h (100 = growth as untreated, 0 = no growth, -100 = all killed)
# Condition context: 10 µM unless noted
This is part of a sample that, as a whole, favours compounds with a hit. Of some 83,000 tested, about 20% had one in any assay. Activity calls are given as the source filed them. The calls were made as follows: active = growth percent below 10; inactive = the rest.
I'd appreciate it if you could supply growth values for the items below.

// below: answered molecules
{"columns": ["Molecule", "Assayed system", "growth"],
 "data": [
  ["CC[C@]12C=CCN3CC[C@]4(C(=C(C(=O)OC)C1)Nc1cc5c(cc14)[C@@H]1[C@H](O5)[C@@H](O)[C@@]4(CC)CC(C(=O)OC)=C5Nc6cc(OC)ccc6[C@@]56CCN1[C@@H]46)[C@@H]32", "K-562 leukemia", "9.45% (active)"],
  ["CCOC(=O)C1=C(C)N=C2Sc3ccccc3N2C1c1ccccc1 (stereo not drawn)", "K-562 leukemia", "72.8% (inactive)"],
  ["COc1ccc(/C=N/Nc2nc(Nc3ccccc3)nc(Nc3ccc(S(N)(=O)=O)cc3)n2)cc1", "K-562 leukemia", "49.4% (inactive)"]
]}

For each of the items listed, what is its growth?
1. Cc1[nH]nc2ccc(-c3nc4cnc(N5CCN(C)CC5)cn4c3Nc3ccc(F)cc3Br)cc12
2. CCN(CC)Cc1c(-c2cccc(OC(F)(F)F)c2)[nH]c2ccc(N3CCCC3)cc2c1=O
3. C#CCOc1ccccc1C(Nc1ccccc1)c1nnnn1C1CCCCC1 (stereo not drawn)
4. CCN1CCN(c2cc(C(=O)Nc3nc4ccc(Oc5ccnc(C(=O)NC)c5)cc4s3)cc(C(F)(F)F)c2)CC1

Response:
5.31% (active)
87.8% (inactive)
77.5% (inactive)
55.3% (inactive)

Note to self: growth recorded for O=C(c1ccc(O)cc1)[C@@H]1[C@@H]2CCCN2[C@@]2(C(=O)N(C(=O)c3ccc(F)cc3)c3ccccc32)[C@H]1c1ccc(F)cc1 was 75.7% (inactive)

###

# Tested on: MCF7 breast
# Assay name: NCI-60 one-dose screen, 48 h
# Condition context: 10 µM unless noted
The panel holds about 83,000 compounds, 20% with a hit somewhere; the sample as a whole holds those more often. Active and inactive are the calls of the source. How the source made its calls: active means growth percent below 10; inactive means the rest.
Permitted responses: active, inactive

{"columns": ["Compound", "Discrete label"],
 "data": [
  ["CN1CCN(c2ccc(C(=O)Nc3cccc(-c4cn(-c5ccc(S(N)(=O)=O)cc5)nn4)c3)cc2C(F)(F)F)CC1", "inactive"],
  ["CCOC(=O)c1c(NC(=O)c2cccc(C(F)(F)F)c2)sc2c(CN3CCN(C)CC3)c(O)ccc12", "active"]
]}

Prompt: Assay result, entry O=C(NNc1nc2cc(F)c(F)cc2n2cccc12)c1cccnn1 — outcome?
Response: active

Prompt: Assay result, entry CS(=O)(=O)c1nccc(-c2c(-c3ccc(F)c(OCc4ccc(F)cc4)c3)nc3sccn23)n1 — outcome?
Response: active

Prompt: Assay result, entry Cc1cnc2nc(NN)[nH]n12 — outcome?
Response: inactive

Prompt: Assay result, entry Cc1ccc(/C=C/CC(=O)Nc2ccc(C(=O)Nc3ccc(F)cc3N)cc2)cn1 — outcome?
Response: inactive

Prompt: Assay result, entry COc1ccc([C@@H]2[C@@H](O)C(=O)N2c2cc(OC)c(OC)c(OC)c2)cc1Cl — outcome?
Response: inactive

Prompt: Assay result, entry C=C(C)C(=O)O[C@H]1C[C@@]2(C)OC(=CC2=O)/C(C)=C\[C@H]2OC(=O)C(=C)[C@H]12 — outcome?
Response: inactive

Prompt: Assay result, entry NS(=O)(=O)c1ccc(Nc2nc(N/N=C/c3ccc(C(F)(F)F)cc3)nc(Nc3ccccc3)n2)cc1 — outcome?
Response: inactive

Prompt: Assay result, entry Oc1ccccc1/C=N/Nc1nc(N/N=C/c2ccccc2O)nc(N2CCOCC2)n1 — outcome?
Response: inactive

Prompt: Assay result, entry CCNC(=NCCCN(C)C)N/C(N)=N/c1nc2ccccc2s1 — outcome?
Response: inactive

Prompt: Assay result, entry CCOC(=O)/C(F)=C/C1CC1CCc1cccc(C(F)(F)F)c1 (configuration not stated) — outcome?
Response: inactive

Prompt: Assay result, entry COC(=O)Nc1ccc(-c2nc(-c3cccc(O)c3)c(-c3ccnc(Br)c3)[nH]2)cc1 — outcome?
Response: inactive

Prompt: Assay result, entry CCN(CC)c1ccc2cc(C(=O)NCCOCCOCCOCCn3cc(CCC(=O)Nc4ccc(C(=O)c5ccc(NC(=O)OC(C)(C)C)cc5)cc4)nn3)c(=O)oc2c1 — outcome?
Response: inactive

Prompt: Assay result, entry COc1ccc2c(c1)c(-c1nn3c(=O)cc(-c4ccccc4)nc3s1)cn2C — outcome?
Response: inactive

###

# Test system: SK-OV-3 ovarian
# Assay name: NCI-60 one-dose screen, 48 h (100 = growth as untreated, 0 = no growth, -100 = all killed)
# Condition context: 10 µM unless noted
# Experimental: Growth inhibition of the SK-OV-3 human tumor cell line is measured as a screen for anti-cancer activity. Cells are grown in 96 well plates and exposed to the test compound for 48 hours. Compounds are tested at a single concentration, which is 10^-5 M for most compounds. The reported endpoint is percent growth (GI% or GIPRCNT), where numbers from 0 - 100% represent growth inhibition, and numbers from -100% - 0 represent cell death. For example, a value of 40 represents 60% growth inhibition. […]
This is part of a sample that, as a whole, favours compounds with a hit. Of some 83,000 tested, about 20% had one in any assay.
Friendly reminder: growth below 60% is TRUE, at or above is FALSE.

{"columns": ["Molecule", "Discrete label"],
 "data": [
  ["CCCCCCCCNC(=O)c1ccc(Cn2c(CCCC)nc3c(N)nc4ccccc4c32)cc1", "FALSE"],
  ["CCN1C(=O)N(CC)C2SC(N/N=C/c3cccs3)=NC21 (stereo unspecified)", "TRUE"],
  ["C[C@@H]1C[C@H]2C(=O)OCC(NC(=O)[C@H](Cc3cc(F)cc(F)c3)NC(=O)Nc3ccc(Cl)cc3F)C(=O)N3CCC[C@H]3C(=O)N3CCCC[C@H]3C(=O)N[C@@H](C)C(=O)N2C1 (stereo partly specified)", "TRUE"],
  ["N/C(=N\\c1nc2ccc([N+](=O)[O-])cc2s1)C(Cl)(Cl)Cl", "FALSE"]
]}

Prompt: Confirm or reject: growth of COc1ccccc1/C=C/C=N/NC1=NC2C(S1)N(C)C(=O)N2c1ccccc1 (stereo unspecified) lies strictly below 60%
Response: FALSE

Prompt: Confirm or reject: growth of N/C(=N\c1nc2c(Cl)cccc2s1)C(Cl)(Cl)Cl lies strictly below 60%
Response: FALSE
